Measured CC50 at 48 h, listed per entry.
# Protocol text: Cytotoxicity against dog MDCK cells assessed as reduction in cell viability incubated for 48 hrs by CellTiter96 Aqueous one solution assay
# Assay type: toxicity, cell-based, Canis lupus familiaris

Structure smiles string: CSc1nc(SC)c2[nH]nc([C@@H]3O[C@H](CO)[C@@H](O)[C@H]3O)c2n1
CC50 at 48 h: > 1000 µM
--
Structure smiles string: C[Se]c1ncnc2c([C@@H]3O[C@H](CO)[C@@H](O)[C@H]3O)n[nH]c12
CC50 at 48 h: < 0.1 µM
--
Structure smiles string: OC[C@H]1O[C@@H](c2n[nH]c3c(N4CCOCC4)ncnc23)[C@H](O)[C@@H]1O
CC50 at 48 h: > 1000 µM

Could you share which CC50 at 48 h value was measured for OC[C@H]1O[C@@H](c2n[nH]c3c(-n4nccn4)ncnc23)[C@H](O)[C@@H]1O ?
< 0.1 µM

Could you share which CC50 at 48 h value was measured for CSc1ncnc2c([C@@H]3O[C@H](CO)[C@H](O)[C@H]3O)n[nH]c12 ?
> 1000 µM

Could you share which CC50 at 48 h value was measured for CSc1nc(O)nc2c([C@@H]3O[C@H](CO)[C@@H](O)[C@H]3O)n[nH]c12 ?
> 1000 µM

Could you share which CC50 at 48 h value was measured for CSc1nc(Cl)nc2c([C@@H]3O[C@H](CO)[C@@H](O)[C@H]3O)n[nH]c12 ?
> 1000 µM

Could you share which CC50 at 48 h value was measured for CSc1ncnc2c([C@@H]3O[C@H](CO)[C@@H](O)[C@]3(C)O)n[nH]c12 ?
> 1000 µM

Could you share which CC50 at 48 h value was measured for CSc1ncnc2c([C@@H]3O[C@H](CO)[C@@H](O)[C@@]3(C)O)n[nH]c12 ?
> 1000 µM
